Experimental target: BRD4-1 (Homo sapiens, UniProt O60885)
Construct: made in house; host or cells: Escherichia coli
Experiment: Biochemical ALPHA assay: binding of BRD4_1 to acetylated histone H4 peptide
Condition summary: 200 nM H4 peptide, 15 nM BRD4_1, 60 min at 25 °C; geometric mean of min. four determinations
The label met is reserved for IC50 strictly under 0.04 µM; not met covers values equal to or above it.

Some solved cases for reference:
Cc1ccc2ncccc2c1-c1cc(-c2c(C)noc2C)cc2[nH]c(=O)[nH]c12 (racemic) [Example 2]    met
Cc1cnn(C)c1-c1cc(-c2c(C)noc2C)cc2[nH]c(=O)[nH]c12    not met
Cc1ccc2ncccc2c1-c1cc(-c2c(C)noc2C)cc2[nH]c(=O)oc12    not met
Cc1ccc2ncccc2c1-c1cc(-c2c(C)noc2C)cc2[nH]c(=O)[nH]c12 (single isomer, unassigned) [Example 14]    met

Now take the following compound into account.
Enquiry: Confirm or reject: IC50 of `Cc1ccc2ncccc2c1-c1cc(-c2c(C)noc2C)cc2[nH]c(=O)n(C)c12` lies strictly below 0.04 µM
Return: met

----------
Each entry below carries its recorded CC50 at 5 days.
Experiment: MT-4 proliferation assay in 384-well format (Cell Titer Glo)
Assay type: cell-based, human
Condition summary: human, MT-4 cells, Table 2, 50% decrease in luminescence signal, read-out: CC50 MT4 384
Please respond with the number in µM and leave the unit unwritten.

Sample answers from the record:
Cc1noc(C)c1-c1cc(C(O)(c2ccccn2)c2ccc3ccc(F)cc3n2)c2[nH]c(=O)[nH]c2c1 (centres unmarked)    0.0291
Cc1noc(C)c1-c1cc(C(O)(c2ccc(F)cn2)c2c(F)cccc2F)c2[nH]c(=O)[nH]c2c1 (centres unmarked)    0.0297
Cc1noc(C)c1-c1cc(C(O)(c2ccccc2)c2ccc3ccc(F)cc3n2)c2[nH]c(=O)[nH]c2c1 (centres unmarked)    0.0291
Cc1noc(C)c1-c1cc(C(O)(c2cccnn2)c2c(F)cccc2F)c2[nH]c(=O)[nH]c2c1 (centres unmarked)    0.016

// moving on: another record for CC50 at 5 days
Enquiry: For the compound shown here, Cc1noc(C)c1-c1cc(C(O)(c2cnccn2)c2c(F)cccc2F)c2[nH]c(=O)[nH]c2c1 (centres unmarked) , give the reported CC50 at 5 days.
Return: 0.0097

----------
Experimental target: BRD4-2 (Homo sapiens)
Construct: made in house; host or cells: Escherichia coli
Experiment: BRD4-2 Ligand KI assay (TR-FRET displacement of Cy5 labeled probe)
Format: binding
Condition summary: 10 nM labeled ligand, 0.5 nM BRD4-2; Ki from IC50 by Cheng and Prusoff; read-out: BRD4-2 Ligand K2
pKi: −log10 of the molar value.
Assign true whenever pKi does not fall below 8; assign false whenever it does.

Some solved entries appear below for comparison.
Cc1noc(C)c1-c1cc(C(O)(c2ccccc2)c2ccccn2)c2[nH]c(=O)[nH]c2c1 (stereo not drawn)    true
Cc1noc(C)c1-c1cc(C(O)(c2ccccn2)c2ccccn2)c2[nH]c(=O)[nH]c2c1F    false
Cc1noc(C)c1-c1cc(C(O)(c2ccc(F)cn2)c2cc(F)ccc2F)c2[nH]c(=O)[nH]c2c1 (stereo not drawn)    true

Enquiry: Assess whether reported pKi for Cc1noc(C)c1-c1cc(C(O)(c2ccccn2)c2ccc3ccc(F)cc3n2)c2[nH]c(=O)[nH]c2c1 (stereo not drawn) sits at 8 or higher.
Return: true

Enquiry: Assess whether reported pKi for Cc1noc(C)c1-c1cc(C(O)(c2ccccn2)C2CCCCC2)c2[nH]c(=O)[nH]c2c1 (stereo not drawn) sits at 8 or higher.
Return: true

Enquiry: Quick check, pKi >= 8? Cc1noc(C)c1-c1cc(C(O)(CCC(F)(F)F)c2ccccn2)c2[nH]c(=O)[nH]c2c1 (stereo not drawn)
Return: false

Enquiry: Identify whether the reported pKi of the following compound is 8 or greater: Cc1noc(C)c1-c1cc(C(O)(c2cnccn2)c2c(F)cc(F)cc2F)c2[nH]c(=O)[nH]c2c1 (stereo not drawn)
Return: true

----------
Experimental target: BRD4-1 (Homo sapiens, UniProt O60885)
Construct: made in house; host or cells: Escherichia coli
Experiment: BRD4-1 Ligand KI assay (TR-FRET displacement of Cy5 labeled probe)
Format: binding
Condition summary: 10 nM labeled ligand, 2 nM BRD4-1; Ki from IC50 by Cheng and Prusoff; read-out: BRD4-1 Ligand K1
Recorded endpoint: Ki (nM)
// units = nM; emit number, no label

Cc1noc(C)c1-c1cc(C(O)(c2ccccc2)c2ccccn2)c2[nH]c(=O)[nH]c2c1 (stereo not shown)    17.3
Cc1noc(C)c1-c1cc(C(O)(c2ccccn2)c2ccc3ccc(F)cc3n2)c2[nH]c(=O)[nH]c2c1 (stereo not shown)    14.1
Cc1cccc(C(O)(c2ccccn2)c2cc(-c3c(C)noc3C)cc3[nH]c(=O)[nH]c23)n1 (stereo not shown)    81.6
Cc1noc(C)c1-c1cc(C(O)(c2cnccn2)c2c(F)cc(F)cc2F)c2[nH]c(=O)[nH]c2c1 (stereo not shown)    6
Cc1noc(C)c1-c1cc(-c2cccnc2C2CC2)c2[nH]c(=O)[nH]c2c1    34.2

Enquiry: Record request: Ki value, item Cc1noc(C)c1-c1cc(C(O)(c2ccccc2)c2ccc3ccc(F)cc3n2)c2[nH]c(=O)[nH]c2c1 (stereo not shown)
Return: 14.1

Enquiry: State the recorded Ki for this entry: Cc1noc(C)c1-c1cc(C(O)(c2cccnn2)c2c(F)cccc2F)c2[nH]c(=O)[nH]c2c1 (stereo not shown)
Return: 8.7

----------
Experimental target: BRD4-1 (Homo sapiens, UniProt O60885)
Construct: made in house; host or cells: Escherichia coli
Experiment: BRD4-1 Ligand KI assay (TR-FRET displacement of Cy5 labeled probe)
Assay type: binding
Condition summary: 10 nM labeled ligand, 2 nM BRD4-1; Ki from IC50 by Cheng and Prusoff; read-out: BRD4-1 Ligand K1
Experimental: Binding of the two tandem bromodomains, BRD4-I and BRD4-2, to a Cy5 labeled probe/ligand (Compound 201-A) were measured using a homogeneous time resolved fluorescence resonance energy transfer (TR-FRET) assay. The labeled ligand specifically binds BRD4-1 and BRD4-2 and can be displaced by a small molecule inhibitor that shares a similar or overlapping binding site. […] After an assay reaction time of 60 minutes at 25° C., binding was measured with 2 nM Eu-cryptate labeled anti-His antibody. […]
Recorded endpoint: pKi
The value called pKi is obtained by taking minus log10 of the concentration in mol/L.

Cc1noc(C)c1-c1cc(C(O)(CCC(F)(F)F)c2ccccn2)c2[nH]c(=O)[nH]c2c1 (stereo not shown) [Example 140]    7.45

Enquiry: What pKi value was documented for this compound, Cc1noc(C)c1-c1cc(C(O)(c2ccc(F)cn2)c2c(F)cc(F)cc2F)c2[nH]c(=O)[nH]c2c1 (stereo not shown) [Example 52] ?
Return: 8.05

Enquiry: I would be grateful if you could share the reported pKi for Cc1cccc(C(O)(c2cccc(C)n2)c2cc(-c3c(C)noc3C)cc3[nH]c(=O)[nH]c23)n1 [Example 134] .
Return: 7.16

Enquiry: Please look up its pKi: Cc1noc(C)c1-c1cc(C(O)(c2ccc(F)cn2)c2ccc(F)cc2F)c2[nH]c(=O)[nH]c2c1 (stereo not shown) [Example 39]
Return: 7.93

----------
Experiment: MT-4 proliferation assay in 384-well format (Cell Titer Glo)
Assay type: cell-based, human
Condition summary: human, MT-4 cells, Table 1, 50% decrease in luminescence signal, read-out: CC50 MT4 384
Recorded endpoint: CC50 at 5 days (nM)
All answers are understood in nM, so give the number only.

Reference set, count: 6
Cc1noc(C)c1-c1cc(-c2cccc3c2CCC(=O)N3C)c2[nH]c(=O)[nH]c2c1    53.9
Cc1noc(C)c1-c1cc(-c2cccnc2-c2ccccc2)c2[nH]c(=O)[nH]c2c1    103
Cc1ccc2ncccc2c1-c1cc(-c2c(C)noc2C)cc2[nH]c(=O)[nH]c12 (racemic)    19
Cc1noc(C)c1-c1cc(-c2c(C)noc2C)c2oc(=O)[nH]c2c1    1030
Cc1cnn(C)c1-c1cc(-c2c(C)noc2C)cc2[nH]c(=O)n(C)c12    117
Cc1ccc2ncccc2c1-c1cc(-c2c(C)noc2C)cc2[nH]c(=O)n(C)c12    17.5

Enquiry: What does the data say about its CC50 at 5 days? Entry: `Cc1noc(C)c1-c1cc(S(=O)(=O)NC2CCCC2)c2[nH]c(=O)[nH]c2c1`
Return: 1120

Enquiry: For `Cc1ccc2ncccc2c1-c1cc(-c2c(C)noc2C)cc2[nH]c(=O)oc12` , what is its reported CC50 at 5 days?
Return: 421

----------
Experimental target: BRD4-2 (Homo sapiens, UniProt O60885)
Construct: made in house; host or cells: Escherichia coli
Experiment: BRD4-2 Ligand KI assay (TR-FRET displacement of Cy5 labeled probe)
Format: binding
Procedure: BRD4-I and BRD4-2 were expressed and purified from Escherichia coli as N-terminal His6-tagged proteins. A Eu-cryptate labeled anti-His antibody (Perkin Elmer) was used to specifically bind BRD4. […] After an assay reaction time of 60 minutes at 25° C., binding was measured with 2 nM Eu-cryptate labeled anti-His antibody. TR-FRET signal was detected on an Envision plate reader (Ex: 320 nm; Em: 615/665 nm; 100 μs delay and 200 μs read window). […]
Recorded endpoint: pKi
Kindly note that pKi refers to -log10 of the concentration in mol/L and answer with the value alone.

Cc1noc(C)c1-c1cc(C(O)(c2ccccn2)c2ccc(Cl)cn2)c2[nH]c(=O)[nH]c2c1 (centres unmarked) [Example 54]    7.85

Enquiry: # lookup: pKi of Cc1noc(C)c1-c1cc(C(O)(c2ccccn2)c2ccccn2)c2[nH]c(=O)[nH]c2c1 [Example 133]
Return: 7.80

Reference source: patent US20160031868A1
